All values here come from patent US9751832B2.

Measured pIC50 of individual entries
target: HDAC1 (Homo sapiens (Human), UniProt Q13547); assay: HDAC inhibition assay, HDAC1; format: biochemical; details: Table 2, cyclic urea compounds; read-out: HDAC1 IC50
Sequence (Q13547 whole entry): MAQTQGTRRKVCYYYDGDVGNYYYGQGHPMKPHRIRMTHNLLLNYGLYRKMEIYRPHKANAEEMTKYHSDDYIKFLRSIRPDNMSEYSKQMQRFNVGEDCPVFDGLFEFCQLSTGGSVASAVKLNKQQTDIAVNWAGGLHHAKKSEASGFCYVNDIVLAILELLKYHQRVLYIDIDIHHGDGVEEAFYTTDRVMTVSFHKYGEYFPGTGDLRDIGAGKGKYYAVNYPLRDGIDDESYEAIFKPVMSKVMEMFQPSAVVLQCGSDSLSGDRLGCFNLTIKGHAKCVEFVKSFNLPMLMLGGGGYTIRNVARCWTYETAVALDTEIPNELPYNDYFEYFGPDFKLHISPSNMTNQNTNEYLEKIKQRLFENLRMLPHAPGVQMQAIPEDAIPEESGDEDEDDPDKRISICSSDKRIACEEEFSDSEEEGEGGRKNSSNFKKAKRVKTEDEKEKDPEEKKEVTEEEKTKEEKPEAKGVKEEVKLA
pIC50: −log10 of the molar value.

[
  {
    "Compound": "COc1ccccc1N1C(=O)N(Cc2ccc(C(=O)NO)cc2)C(C)(C)C1=O [Compound 10a]",
    "pIC50": 4.54
  },
  {
    "Compound": "CC(C)[C@@H]1C(=O)N(c2ccccc2)C(=O)N1Cc1ccc(C(=O)NO)cc1 [Compound 10b]",
    "pIC50": 4.93
  },
  {
    "Compound": "O=C(NO)c1ccc(CN2C(=O)N[C@@H](Cc3ccccc3)C2=O)cc1 [Compound 11a]",
    "pIC50": 5.12
  }
]
